Data origin: paper PMC13334471

# target_desc: F-actin-Tm composite thin filament (rabbit, UniProt P68135 1-377; P58772 1-284)
# test_summary: SPR
endpoint_name: kon (M⁻¹ s⁻¹)

binder	assay_value
SKTRGKAKVTGRWK (peptide, UniProt P45379-6 275-288, looked up)	5270
SKTRGNAKVTGRWK (peptide, UniProt P45379-6 275-288, looked up) [Human cTnT-C14 peptide containing HCM-linked mutation K280N]	6450
SKTRGKAKVTGCWK (peptide, UniProt P45379-6 275-288, looked up) [Human cTnT-C14 peptide containing HCM-linked mutation R286C]	3850
SKTCGKAKVTGRWK (peptide, UniProt P45379-6 275-288, looked up) [Human cTnT-C14 peptide containing HCM-linked mutation R278C]	3930
